# pIC50 annotations
MEASURED_TARGET: TCF4-CTNNB1 complex (Homo sapiens, UniProt P35222+Q9NQB0)
Sequence (P35222 whole entry): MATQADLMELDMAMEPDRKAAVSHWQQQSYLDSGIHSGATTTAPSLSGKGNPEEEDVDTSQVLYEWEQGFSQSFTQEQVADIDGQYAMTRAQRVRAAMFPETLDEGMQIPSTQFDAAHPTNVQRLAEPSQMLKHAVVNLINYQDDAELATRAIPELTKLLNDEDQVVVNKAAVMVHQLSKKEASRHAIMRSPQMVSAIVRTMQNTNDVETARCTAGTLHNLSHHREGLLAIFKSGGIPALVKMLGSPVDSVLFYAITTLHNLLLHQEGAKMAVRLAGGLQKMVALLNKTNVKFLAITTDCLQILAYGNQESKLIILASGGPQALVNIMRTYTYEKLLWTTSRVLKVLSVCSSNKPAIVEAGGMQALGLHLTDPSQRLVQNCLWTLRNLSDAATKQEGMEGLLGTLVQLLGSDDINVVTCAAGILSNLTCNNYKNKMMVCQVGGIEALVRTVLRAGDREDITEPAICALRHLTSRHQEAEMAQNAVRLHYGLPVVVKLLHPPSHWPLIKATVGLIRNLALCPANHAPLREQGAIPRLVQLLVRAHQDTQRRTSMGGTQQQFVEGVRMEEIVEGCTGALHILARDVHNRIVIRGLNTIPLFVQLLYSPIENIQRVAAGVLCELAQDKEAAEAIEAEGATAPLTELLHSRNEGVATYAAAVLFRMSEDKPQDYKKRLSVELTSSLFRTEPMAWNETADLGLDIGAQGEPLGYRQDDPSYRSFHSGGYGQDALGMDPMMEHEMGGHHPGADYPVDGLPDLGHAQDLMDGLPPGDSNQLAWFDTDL
Sequence (P15884 whole entry): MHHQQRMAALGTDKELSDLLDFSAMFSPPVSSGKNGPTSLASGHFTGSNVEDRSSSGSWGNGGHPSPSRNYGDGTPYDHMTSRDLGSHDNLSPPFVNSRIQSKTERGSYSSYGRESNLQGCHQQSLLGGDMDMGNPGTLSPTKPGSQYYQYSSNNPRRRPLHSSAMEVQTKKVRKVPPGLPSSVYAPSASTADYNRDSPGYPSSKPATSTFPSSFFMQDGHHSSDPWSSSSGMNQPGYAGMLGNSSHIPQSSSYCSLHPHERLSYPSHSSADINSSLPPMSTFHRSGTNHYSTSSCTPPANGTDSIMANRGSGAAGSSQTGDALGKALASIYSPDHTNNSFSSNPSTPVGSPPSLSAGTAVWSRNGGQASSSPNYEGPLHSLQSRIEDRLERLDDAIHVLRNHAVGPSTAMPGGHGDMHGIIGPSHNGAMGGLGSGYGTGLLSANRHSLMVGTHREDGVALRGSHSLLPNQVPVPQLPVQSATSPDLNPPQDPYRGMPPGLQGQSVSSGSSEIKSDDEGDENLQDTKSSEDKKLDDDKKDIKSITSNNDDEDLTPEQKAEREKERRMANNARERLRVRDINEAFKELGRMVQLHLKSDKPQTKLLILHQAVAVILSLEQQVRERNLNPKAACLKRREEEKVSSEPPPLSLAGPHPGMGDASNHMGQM
PROTOCOL: Inhibition of human beta-Catenin/GST-tagged TCF4 (unknown origin) protein-protein interaction incubated for 2 hrs by ELISA assay
Type: protein-complex assay
pIC50: −log10 of the molar value.

COMPOUND	MEASURED_TARGET	pIC50
COc1c(CC(C)OC(=O)c2c(C)cc(O)cc2C)c2c3c(CC(C)OC(=O)c4c(C)cc(O)cc4O)c(OC)c(=O)c4c(O)cc(OC)c(c5c(OC)cc(O)c(c1=O)c52)c43 (configuration not stated)	TCF4-CTNNB1 complex (Homo sapiens, UniProt P35222+Q9NQB0)	5.39
COC(=O)c1c(C)cc2c(c1O)[C@]1(O)C(=O)c3cc4c(c(O)c3C(=O)[C@]1(OC)[C@H](O)C2)C(=O)C=C(N[C@@H]1O[C@H](C)[C@@H](OC)[C@H](O)[C@@H]1OC)C4=O	TCF4-CTNNB1 complex (Homo sapiens, UniProt P35222+Q9NQB0)	6.19

Values were extracted from ChEMBL document CHEMBL5331063.
